The molecules listed here are annotated with their percent inhibition of viability.
- Test system: KAI3 (IL-2 2.5 ng/mL)
- assay.summary: percent inhibition of viability; higher = more inhibition
- condition.parameters: 72 h; 10000 nM
measure: percent inhibition of viability (%)

{"columns": ["molecule", "observed.measurement"],
 "data": [
  ["O=C(CCCCCCC(=O)Nc1ccccc1)NO [Vorinostat] (max concentration tested 10000 nM)", 106],
  ["CCn1c(C(=O)N(C2CC2)C2CC2)cc2c3c(ncn3C)c(Nc3cc(C)n(C)n3)nc21 (max concentration tested 10000 nM)", 76.3],
  ["CNC(=O)c1ccccc1Sc1ccc2c(/C=C/c3ccccn3)n[nH]c2c1 [Axitinib] (max concentration tested 10000 nM)", 82],
  ["O=P1(NCCCl)OCCCN1CCCl (stereo unspecified) [Ifosfamide] (max concentration tested 10000 nM)", -0.66],
  ["Cc1c(CN2CCN(C(=O)[C@H](C)O)CC2)sc2c(N3CCOCC3)nc(-c3cnc(N)nc3)nc12 [Apitolisib] (max concentration tested 10000 nM)", 65.3],
  ["CC1(COc2ccc3c(c2)ncn3-c2ccc3cccc(N4CCC(N)CC4)c3n2)COC1 [Crenolanib] (max concentration tested 10000 nM)", 102]
]}

---

- Tested on: KAI3 (IL-2 2.5 ng/mL)
- assay.summary: relative IC50 (inflection point of fitted viability curve, relative to fitted max inhibition); higher = less sensitive
- condition.parameters: 72 h
measure: relative IC50

{"columns": ["compound", "measure", "observed.measurement"],
 "data": [
  ["CC/C(=C(\\c1ccc(O)cc1)c1ccc(OCCN(C)C)cc1)c1ccccc1 [4-hydroxytamoxifen]", "relative IC50", "2640 nM"],
  ["NC(=O)NO [Hydroxyurea]", "relative IC50", "2630 nM"],
  ["CC(=O)OC[C@H]1O[C@@H]([S-])[C@H](OC(C)=O)[C@@H](OC(C)=O)[C@@H]1OC(C)=O.CCP(CC)CC.[Au+]", "relative IC50", "859 nM"]
]}

---

- Test system: IMC-1 (IL-2 20 ng/mL)
- assay.summary: percent inhibition of viability; higher = more inhibition
- condition.parameters: 72 h; 10000 nM
Criterion: percent inhibition of viability strictly under 30%. Met: Satisfied. Not met: Not satisfied.

{"columns": ["compound", "qualitative.label"],
 "data": [
  ["O=C(O)CCCc1ccc(N(CCCl)CCCl)cc1 [Chlorambucil] (max concentration tested 10000 nM)", "Satisfied"],
  ["CO[C@H](C(=O)[C@@H](O)[C@@H](C)O)[C@@H]1Cc2cc3cc(O[C@H]4C[C@@H](O[C@@H]5C[C@@H](O)[C@H](O)[C@@H](C)O5)[C@H](O)[C@@H](C)O4)c(C)c(O)c3c(O)c2C(=O)[C@H]1O[C@H]1C[C@@H](O[C@@H]2C[C@@H](O)[C@@H](O[C@@H]3C[C@](C)(O)[C@H](O)[C@@H](C)O3)[C@@H](C)O2)[C@H](O)[C@@H](C)O1 [Plicamycin] (max concentration tested 10000 nM)", "Not satisfied"],
  ["CN(C)CCN1C(=O)c2cccc3cc(N)cc(c23)C1=O [Amonafide] (max concentration tested 10000 nM)", "Not satisfied"],
  ["Oc1nc(-c2ccc(C(F)(F)F)cc2)nc2c1CSCC2 [XAV-939] (max concentration tested 10000 nM)", "Not satisfied"],
  ["Nc1nc(Nc2ccc3c(c2)CC[C@@H](N2CCCC2)CC3)nn1-c1cc2c(nn1)-c1ccccc1CCC2 [BGB324] (max concentration tested 10000 nM)", "Not satisfied"],
  ["CC(C)n1cnc2c(NCCc3ccc(O)cc3)nc(-c3csc4ccccc34)nc21 [StemRegenin 1] (max concentration tested 10000 nM)", "Satisfied"],
  ["COc1cc([C@@H]2c3cc4c(cc3[C@@H](O[C@@H]3O[C@@H]5CO[C@@H](C)O[C@H]5[C@H](O)[C@H]3O)[C@H]3COC(=O)[C@H]23)OCO4)cc(OC)c1O [Etoposide] (max concentration tested 10000 nM)", "Not satisfied"],
  ["CCCCCCCCc1ccc(CCC(N)(CO)CO)cc1 [Fingolimod] (max concentration tested 10000 nM)", "Not satisfied"],
  ["CC/C(=C(\\c1ccc(O)cc1)c1ccc(OCCN(C)C)cc1)c1ccccc1 [4-hydroxytamoxifen] (max concentration tested 10000 nM)", "Not satisfied"],
  ["Nc1nc(OCc2cc(Br)cs2)c2[nH]cnc2n1 [Lomeguatrib] (max concentration tested 10000 nM)", "Satisfied"]
]}

---

- Tested on: IMC-1 (IL-2 20 ng/mL)
- assay.summary: drug sensitivity score (DSS) (DSS units); higher = more sensitive; extreme values may be limits of the assay
- condition.parameters: 72 h

{"columns": ["compound", "subject.of.test", "drug sensitivity score"],
 "data": [
  ["Nc1nc(OCc2cc(Br)cs2)c2[nH]cnc2n1 [Lomeguatrib] (max concentration tested 10000 nM)", "IMC-1 (IL-2 20 ng/mL)", 0],
  ["Cc1ccc(-n2nc(C(C)(C)C)cc2NC(=O)Nc2ccc(OCCN3CCOCC3)c3ccccc23)cc1 [Doramapimod] (max concentration tested 10000 nM)", "IMC-1 (IL-2 20 ng/mL)", 2.23],
  ["Oc1nc(-c2ccc(C(F)(F)F)cc2)nc2c1CSCC2 [XAV-939] (max concentration tested 10000 nM)", "IMC-1 (IL-2 20 ng/mL)", 3.24],
  ["Nc1nc(Cl)nc2c1ncn2[C@@H]1O[C@H](CO)[C@@H](O)[C@@H]1F [Clofarabine] (max concentration tested 10000 nM)", "IMC-1 (IL-2 20 ng/mL)", 27.6],
  ["Cn1cc(C[C@@H](N)C(=O)O)c2ccccc21 [1-methyl-D-tryptophan] (max concentration tested 5000 nM)", "IMC-1 (IL-2 20 ng/mL)", 0]
]}

---

- System: normal primary NK cells, pool 1 (3 donors) (IL-2 2.5 ng/mL)
- assay.summary: percent inhibition of viability; higher = more inhibition
- condition.parameters: 72 h; 1 nM

{"columns": ["compound", "percent inhibition of viability"],
 "data": [
  ["CO[C@H](C(=O)[C@@H](O)[C@@H](C)O)[C@@H]1Cc2cc3cc(O[C@H]4C[C@@H](O[C@@H]5C[C@@H](O)[C@H](O)[C@@H](C)O5)[C@H](O)[C@@H](C)O4)c(C)c(O)c3c(O)c2C(=O)[C@H]1O[C@H]1C[C@@H](O[C@@H]2C[C@@H](O)[C@@H](O[C@@H]3C[C@](C)(O)[C@H](O)[C@@H](C)O3)[C@@H](C)O2)[C@H](O)[C@@H](C)O1 [Plicamycin] (max concentration tested 10000 nM)", "-2.64%"],
  ["Clc1ccc(Nc2nnc(Cc3ccncc3)c3ccccc23)cc1 [Vatalanib] (max concentration tested 10000 nM)", "-1.16%"],
  ["CC[C@H](C)C(=O)O[C@H]1C[C@@H](C)C=C2C=C[C@H](C)[C@H](CC[C@@H]3C[C@@H](O)CC(=O)O3)[C@H]21 [Lovastatin] (max concentration tested 10000 nM)", "-9.05%"]
]}

---

- System: SNK-6 (IL-2 2.5 ng/mL)
- assay.summary: percent inhibition of viability; higher = more inhibition
- condition.parameters: 72 h; 100 nM
The molecules listed here are annotated with their percent inhibition of viability.
measure: percent inhibition of viability

{"columns": ["molecule", "observed.measurement"],
 "data": [
  ["CC[C@]1(O)C[C@H]2CN(CCc3c([nH]c4ccccc34)[C@@](C(=O)OC)(c3cc4c(cc3OC)N(C=O)[C@H]3[C@@](O)(C(=O)OC)[C@H](OC(C)=O)[C@]5(CC)C=CCN6CC[C@]43[C@@H]65)C2)C1 [Vincristine] (max concentration tested 1000 nM)", "86.6%"],
  ["Cn1cc(C2=C(c3cn(C4CCN(Cc5ccccn5)CC4)c4ccccc34)C(=O)NC2=O)c2ccccc21 [Enzastaurin] (max concentration tested 10000 nM)", "11%"],
  ["N#Cc1ccc2[nH]c(O)c(-c3ccc(CN4CCOCC4)cn3)c2c1 [AZD-1080] (max concentration tested 10000 nM)", "-7.02%"],
  ["COc1cc(CCc2cc(NC(=O)c3ccc(N4CC(C)NC(C)C4)cc3)n[nH]2)cc(OC)c1 (stereo not given) [AZD4547] (max concentration tested 1000 nM)", "-1.06%"],
  ["CCN(CC)CCNC(=O)c1c(C)[nH]c(/C=C2\\C(=O)Nc3ccc(F)cc32)c1C [Sunitinib] (max concentration tested 1000 nM)", "-18.1%"]
]}

---

The compounds listed here are annotated with their percent inhibition of viability.
- System: KAI3 (IL-2 2.5 ng/mL)
- assay.summary: percent inhibition of viability; higher = more inhibition
- condition.parameters: 72 h; 10 nM

{"columns": ["compound", "readout.units", "percent inhibition of viability"],
 "data": [
  ["C[C@@H]1C[C@H]2[C@@H]3CCC4=CC(=O)C=C[C@]4(C)[C@@]3(F)[C@@H](O)C[C@]2(C)[C@@]1(O)C(=O)CO [Dexamethasone] (max concentration tested 10000 nM)", "%", -13.5],
  ["Cn1c(Nc2ccc(C(F)(F)F)cc2)nc2cc(Oc3ccnc(-c4ncc(C(F)(F)F)[nH]4)c3)ccc21 [RAF265] (max concentration tested 1000 nM)", "%", 9.74],
  ["O=C(CCCCCCC(=O)Nc1ccc([C@H]2O[C@@H](CSc3nc(-c4ccccc4)c(-c4ccccc4)o3)C[C@@H](c3ccc(CO)cc3)O2)cc1)NO [Tubacin] (max concentration tested 10000 nM)", "%", -0.51]
]}
